Reference source for all entries: patent US12378206B2

Target: human LTA4H (Homo sapiens)
Sequence (P09960 1-611): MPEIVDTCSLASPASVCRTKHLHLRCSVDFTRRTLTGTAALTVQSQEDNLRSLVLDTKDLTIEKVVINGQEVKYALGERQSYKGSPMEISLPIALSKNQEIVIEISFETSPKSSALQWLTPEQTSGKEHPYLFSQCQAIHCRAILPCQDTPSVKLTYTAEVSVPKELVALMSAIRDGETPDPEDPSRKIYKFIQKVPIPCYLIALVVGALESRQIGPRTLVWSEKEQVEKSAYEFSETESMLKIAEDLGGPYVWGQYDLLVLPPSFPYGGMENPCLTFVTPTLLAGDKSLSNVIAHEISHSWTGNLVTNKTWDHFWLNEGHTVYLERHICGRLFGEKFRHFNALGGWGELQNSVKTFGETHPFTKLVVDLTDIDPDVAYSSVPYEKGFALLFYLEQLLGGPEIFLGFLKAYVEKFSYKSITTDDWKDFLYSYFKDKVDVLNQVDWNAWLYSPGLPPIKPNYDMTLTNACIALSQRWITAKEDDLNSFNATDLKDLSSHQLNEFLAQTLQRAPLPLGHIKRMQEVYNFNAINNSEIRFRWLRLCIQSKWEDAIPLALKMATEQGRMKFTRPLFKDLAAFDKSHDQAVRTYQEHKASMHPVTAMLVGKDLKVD
MEASURED_PROPERTY: IC50 (nM)
Give the quantity in nM, number only.

# annotated cases, reported IC50 shown
cpd_smiles=N[C@H](CC(=O)O)Cn1nnc(-c2ccc(Oc3ccc(F)c(Cl)c3)cc2)n1 uom=nM reading=3
cpd_smiles=N[C@@H](CC(=O)O)Cn1cc(-c2ccc(Oc3ccc(Cl)cc3)cc2)cn1 uom=nM reading=3
cpd_smiles=N[C@H](CC(=O)O)Cn1nnc(-c2cccc(Oc3ccc(C(F)(F)F)cn3)c2)n1 uom=nM reading=3
cpd_smiles=N[C@H](CC(=O)O)Cn1nnc(-c2cccc(Oc3cc(F)cc(F)c3)c2)n1 uom=nM reading=8
cpd_smiles=N[C@H](CC(=O)O)Cn1nnc(-c2cccc(OCc3ccccc3)c2)n1 uom=nM reading=3

Form field: reported IC50 of `N[C@@H](CC(=O)O)Cc1nc(-c2ccc(Oc3ccc(Cl)cc3)cc2)no1`
3

Form field: reported IC50 of `CCCCOc1ccc(-c2nnn(C[C@H](N)CC(=O)O)n2)cc1`
4

Form field: reported IC50 of `NC(=O)C[C@H](N)Cc1nc(-c2ccc(Oc3ccc(Cl)cc3)cc2)no1`
10

Form field: reported IC50 of `N[C@@H](CC(=O)O)Cc1nnc(-c2ccc(Oc3ccc(Cl)cc3)cc2)o1`
3

###

Recorded pIC50 values for a group of compounds are listed next.
system: LTB4 biosynthesis in human whole blood; experiment: Human whole blood assay (hWB): inhibition of LTB4 biosynthesis after A23187 stimulation, ELISA; type: cell-based; details: human whole blood diluted 1:3, 10 μg/ml calcium ionophore A23187, LTB4 by ELISA; read-out: hWB IC50
Lab note: report pIC50 as minus log10 of the concentration in molar units, number only.

# annotated cases, reported pIC50 shown
cpd_smiles=N[C@@H](CC(=O)O)Cn1nnc(-c2cccc(Oc3ccccc3)c2)n1 reading=6.67
cpd_smiles=Cc1ccc(Oc2ccc(-c3nnn(C[C@H](N)CC(=O)O)n3)cc2)cc1 reading=6.40
cpd_smiles=N[C@@H](CC(=O)O)Cc1nnc(-c2ccc(Oc3ccc(Cl)cc3)cc2)o1 reading=6.42

Kindly consider the entry below.
Form field: reported pIC50 of `N[C@@H](CC(=O)O)Cc1nnc(-c2ccc(Oc3ccc(F)cc3)cc2)o1`
6.55
